Listed here are compounds together with their documented IC50.
target: human TLR9 (Homo sapiens); assay: TLR9 inhibition reporter assay (HEK-Blue cells, SEAP reporter, ODN2006 stimulation); details: HEK-Blue cells overexpressing human TLR9, ODN2006 5 nM
Sequence (Q9NR96 26-1032): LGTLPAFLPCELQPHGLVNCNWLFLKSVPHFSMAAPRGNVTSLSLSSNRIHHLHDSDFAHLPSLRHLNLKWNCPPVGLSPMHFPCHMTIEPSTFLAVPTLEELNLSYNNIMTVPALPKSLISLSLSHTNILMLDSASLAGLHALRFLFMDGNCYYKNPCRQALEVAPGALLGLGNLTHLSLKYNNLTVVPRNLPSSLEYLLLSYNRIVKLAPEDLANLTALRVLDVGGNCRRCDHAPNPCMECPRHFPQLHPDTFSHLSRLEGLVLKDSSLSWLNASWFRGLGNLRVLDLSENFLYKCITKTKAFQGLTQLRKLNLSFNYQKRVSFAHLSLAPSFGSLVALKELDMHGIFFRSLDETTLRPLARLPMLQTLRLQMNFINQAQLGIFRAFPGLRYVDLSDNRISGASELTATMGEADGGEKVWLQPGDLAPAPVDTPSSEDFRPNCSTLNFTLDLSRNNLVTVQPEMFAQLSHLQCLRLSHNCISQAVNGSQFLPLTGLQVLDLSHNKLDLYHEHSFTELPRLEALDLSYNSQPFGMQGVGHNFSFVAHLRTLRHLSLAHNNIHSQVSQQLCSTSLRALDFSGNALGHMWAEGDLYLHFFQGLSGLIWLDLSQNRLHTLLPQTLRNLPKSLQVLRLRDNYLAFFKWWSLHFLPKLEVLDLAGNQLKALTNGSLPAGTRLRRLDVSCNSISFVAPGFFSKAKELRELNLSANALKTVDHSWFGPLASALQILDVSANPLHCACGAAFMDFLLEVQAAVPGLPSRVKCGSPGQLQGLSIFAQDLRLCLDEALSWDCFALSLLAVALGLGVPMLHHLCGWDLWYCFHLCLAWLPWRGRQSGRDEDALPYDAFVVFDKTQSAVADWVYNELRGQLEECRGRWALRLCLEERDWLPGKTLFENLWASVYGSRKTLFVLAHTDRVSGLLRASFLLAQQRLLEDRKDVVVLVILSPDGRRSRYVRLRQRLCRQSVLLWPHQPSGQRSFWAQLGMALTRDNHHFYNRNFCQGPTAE
# number only, unit nM dropped from output

[[record]]
compound = "COc1ccc(-c2[nH]c3ccc(C4CCN(C5CCN(C6CCN(C)CC6)CC5)CC4)cc3c2C)cc1OC"
measured_endpoint = "IC50"
measurement = 190

[[record]]
compound = "CCc1c(-c2ccc(OC)c(OC)c2)[nH]c2ccc(C3CCN(C(=O)C4CCCNC4)CC3)cc12 (stereo not shown)"
measured_endpoint = "IC50"
measurement = 2070

[[record]]
compound = "COc1ccc(-c2[nH]c3ccc(C4CCN(C(=O)CN5CCC(CO)CC5)CC4)cc3c2C(C)C)cc1OC"
measured_endpoint = "IC50"
measurement = 1510

[[record]]
compound = "COc1ccc(-c2[nH]c3ccc(C4CCN(C(=O)CN(C)CCO)CC4)cc3c2C(C)C)cc1OC"
measured_endpoint = "IC50"
measurement = 976

[[record]]
compound = "COc1ccc(-c2[nH]c3ccc(C4CCN(Cc5cnc[nH]5)CC4)cc3c2C(C)C)cc1OC"
measured_endpoint = "IC50"
measurement = 1480

[[record]]
compound = "CCc1c(-c2ccc(OC)c(OC)c2)[nH]c2ccc(C3CCN(C4CCN(Cc5c[nH]cn5)CC4)CC3)cc12"
measured_endpoint = "IC50"
measurement = 410


In the following, a different compound is considered.
Prompt: Query the reported IC50 for human TLR9 (Homo sapiens); item: `COc1ccc(-c2[nH]c3ccc(C4CCN(C(=O)C5CCN(C(C)=O)CC5)CC4)cc3c2CC(F)(F)F)cc1OC`
Completion: 25200
